Task for the reader: assign each of the following compounds its reported Short-time stability (24h, RT, with daylight) Accuracy [%].
- testDescription: Short-term stability in spiked pooled human plasma (bench-top, 4 °C, 56 °C)
- testContext: validation standard ULOV
Numbers only, in %.

Record excerpt, results attached:
[[record]]
compound = "O=C(Nc1cnn2ccc(N3CCC[C@@H]3c3cc(F)ccc3F)nc12)N1CC[C@H](O)C1"
recordednumber = 105.3

[[record]]
compound = "CNCc1ccc(-c2[nH]c3cc(F)cc4c3c2CCNC4=O)cc1"
recordednumber = 98.9

[[record]]
compound = "CS(=O)(=O)CCNCc1ccc(-c2ccc3ncnc(Nc4ccc(OCc5cccc(F)c5)c(Cl)c4)c3c2)o1"
recordednumber = 100.7

[[record]]
compound = "O=C(c1cc(Cc2n[nH]c(=O)c3ccccc23)ccc1F)N1CCN(C(=O)C2CC2)CC1"
recordednumber = 99.0

[[record]]
compound = "CN(C)C(=O)c1cc2cnc(Nc3ccc(N4CCNCC4)cn3)nc2n1C1CCCC1"
recordednumber = 84.8


Please supply Short-time stability (24h, RT, with daylight) Accuracy [%] for each of the following items, keeping them in order.
1. C[C@H]1Oc2cc(cnc2N)-c2c(nn(C)c2C#N)CN(C)C(=O)c2ccc(F)cc21
2. CNC(=O)c1ccc(N2C(=S)N(c3ccc(C#N)c(C(F)(F)F)c3)C(=O)C2(C)C)cc1F [Enzalutamide]
3. Cc1c(C(=O)Nc2ccc(N3C[C@@H](C)O[C@@H](C)C3)nc2)cccc1-c1ccc(OC(F)(F)F)cc1

1: 100.4; 2: 103.4; 3: 92.9

---

- testDescription: Short-term stability in spiked pooled human plasma (bench-top, 4 °C, 56 °C)
- testContext: validation standard 2xLLOV
testReadout: Short-time stability (24h, RT, with daylight) Accuracy [%] (%)
One number for each entry, in %.

Worked set:
[[record]]
compound = "Nc1cccc2c1CN(C1CCC(=O)NC1=O)C2=O (centres unmarked) [Lenalidomide]"
recordednumber = 54.9

[[record]]
compound = "C[C@]12CC[C@H](O)CC1=CC[C@@H]1[C@@H]2CC[C@]2(C)C(c3cccnc3)=CC[C@@H]12"
recordednumber = 101.7

[[record]]
compound = "CNC(=O)c1cc(Oc2ccc(NC(=O)Nc3ccc(Cl)c(C(F)(F)F)c3)cc2)ccn1"
recordednumber = 85.6

[[record]]
compound = "C[C@H]1Oc2cc(cnc2N)-c2c(nn(C)c2C#N)CN(C)C(=O)c2ccc(F)cc21"
recordednumber = 98.9

[[record]]
compound = "Cn1cnc2c(F)c(Nc3ccc(Br)cc3F)c(C(=O)NOCCO)cc21"
recordednumber = 89.3

[[record]]
compound = "CC1(C)CCC(CN2CCN(c3ccc(C(=O)NS(=O)(=O)c4ccc(NCC5CCOCC5)c([N+](=O)[O-])c4)c(Oc4cnc5[nH]ccc5c4)c3)CC2)=C(c2ccc(Cl)cc2)C1"
recordednumber = 98.6

[[record]]
compound = "CN(C)C/C=C/C(=O)Nc1cc2c(Nc3ccc(F)c(Cl)c3)ncnc2cc1O[C@H]1CCOC1"
recordednumber = 80.8


// switching to the query compound
What measured Short-time stability (24h, RT, with daylight) Accuracy [%] goes with `CCN(CC)CCNC(=O)c1c(C)[nH]c(/C=C2\C(=O)Nc3ccc(F)cc32)c1C` ? 79.8

---

- testDescription: Freeze-thaw stability in spiked pooled human plasma
- Assay type: physicochemical
- testContext: validation standard 2xLLOV
Record form. Attribute: Freeze-Thaw Accuracy [%]. Fill in for each entry.
One number for each entry, in %.

Example compounds with recorded Freeze-Thaw Accuracy [%]:
[[record]]
compound = "C#Cc1cccc(Nc2ncnc3cc(OCCOC)c(OCCOC)cc23)c1 [Erlotinib]"
recordednumber = 100.9

[[record]]
compound = "COC(=O)c1ccc2c(c1)NC(=O)/C2=C(\\Nc1ccc(N(C)C(=O)CN2CCN(C)CC2)cc1)c1ccccc1 [Nintedanib]"
recordednumber = 103.0

[[record]]
compound = "Cc1ccc(NC(=O)c2ccc(CN3CCN(C)CC3)cc2)cc1Nc1nccc(-c2cccnc2)n1 [Imatinib]"
recordednumber = 98.5


Please state, for each entry, its recorded Freeze-Thaw Accuracy [%].
1. Cc1c(C(=O)Nc2ccc(N3C[C@@H](C)O[C@@H](C)C3)nc2)cccc1-c1ccc(OC(F)(F)F)cc1 [Sonidegib]
2. Cn1cnc2c(F)c(Nc3ccc(Br)cc3F)c(C(=O)NOCCO)cc21 [Binimetinib]

[97.9, 92.6]
